- test system: human heart chymase (Homo sapiens, UniProt P23946)
- Sequence (P23946 22-247): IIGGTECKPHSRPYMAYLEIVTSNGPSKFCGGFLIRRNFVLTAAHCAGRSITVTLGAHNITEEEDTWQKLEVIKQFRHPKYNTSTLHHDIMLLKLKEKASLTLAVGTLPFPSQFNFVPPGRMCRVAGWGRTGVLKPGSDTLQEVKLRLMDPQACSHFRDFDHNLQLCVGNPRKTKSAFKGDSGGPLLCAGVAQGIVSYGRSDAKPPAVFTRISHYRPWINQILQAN
observable: Ki (µM)

Cc1cccc(-c2ncc(NC(=O)OCc3ccccc3)c(=O)n2CC(=O)NC(Cc2ccccc2)C(=O)c2nc3cc(C(N)=O)ccc3o2)c1 (stereo not shown) | 0.066
Nc1ccc2oc(C(=O)C(Cc3ccccc3)NC(=O)Cn3c(-c4ccc(F)cc4)ncc(N)c3=O)nc2c1 (stereo not shown) | 0.183
CCOC(=O)c1ccc2oc(C(=O)C(Cc3ccccc3)NC(=O)Cn3c(-c4ccccc4)ncc(N)c3=O)nc2c1 (stereo not shown) | 0.002
Nc1cnc(-c2ccc(F)cc2)n(CC(=O)NC(Cc2ccccc2)C(=O)c2nc3cc(NS(=O)(=O)C(F)(F)F)ccc3o2)c1=O (stereo not shown) | 0.13

P: O=C(Cn1c(-c2ccc(F)cc2)ncc(NC(=O)OCc2ccccc2)c1=O)NC(Cc1ccccc1)C(=O)c1nccs1 (stereo not shown)
Q: COC(=O)c1ccc2oc(C(=O)C(Cc3ccccc3)NC(=O)Cn3c(-c4ccc(F)cc4)ncc(NC(=O)OCc4ccccc4)c3=O)nc2c1 (stereo not shown)
R: Nc1cnc(-c2ccc(F)cc2)n(CC(=O)NC(Cc2ccccc2)C(=O)c2nc3cc(C(=O)O)ccc3o2)c1=O (stereo not shown)
S: O=C(Cn1c(-c2ccc(F)cc2)ncc(NC(=O)OCc2ccccc2)c1=O)NC(Cc1ccccc1)C(=O)C1=NCCO1 (stereo not shown)
Qu. Sort these compounds on Ki so the largest reading comes first. Provide the ranking by listing each label in its place in the requested order.
Ans. Q, P, R, S

* * *

Target sequence: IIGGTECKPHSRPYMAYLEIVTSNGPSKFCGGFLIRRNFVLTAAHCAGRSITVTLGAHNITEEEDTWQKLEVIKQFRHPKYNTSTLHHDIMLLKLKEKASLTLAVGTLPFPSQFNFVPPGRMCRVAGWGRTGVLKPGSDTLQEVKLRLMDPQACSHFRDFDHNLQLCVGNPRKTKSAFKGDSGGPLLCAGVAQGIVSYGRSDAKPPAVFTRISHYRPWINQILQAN
observable: Ki (nM)

A: O=CC(Cc1ccccc1)NC(=O)Cn1c(-c2ccc(F)cc2)ncc(NC(=O)OCc2ccccc2)c1=O (centres unmarked)
B: CC(=O)Nc1cnc(-c2ccc(F)cc2)n(CC(=O)NC(Cc2ccccc2)C(=O)c2nc3ccccc3o2)c1=O (centres unmarked)
C: Nc1cnc(-c2ccc(F)cc2)n(CC(=O)NC(Cc2ccc(F)cc2)C(=O)c2nc3ccccc3o2)c1=O (centres unmarked)
Qu. Rank the listed molecules by Ki, largest first. Reply format: the labels, ordered as requested.
Ans. A, C, B

* * *

Target protein (sequence): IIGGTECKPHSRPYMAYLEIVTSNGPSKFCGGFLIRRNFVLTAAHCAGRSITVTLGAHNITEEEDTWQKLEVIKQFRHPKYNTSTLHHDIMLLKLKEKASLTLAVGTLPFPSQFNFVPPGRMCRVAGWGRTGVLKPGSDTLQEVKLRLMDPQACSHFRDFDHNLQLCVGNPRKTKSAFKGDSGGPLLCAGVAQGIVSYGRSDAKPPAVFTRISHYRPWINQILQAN
observable: Ki (nM)

Solved cases (3 shown):
Nc1cnc(-c2ccc(F)cc2)n(CC(=O)NC(Cc2ccccc2)C(=O)c2nc3cc(F)ccc3o2)c1=O (centres unmarked) | 93
COC(=O)c1ccc2oc(C(=O)C(Cc3ccccc3)NC(=O)Cn3c(-c4cccc(N)c4)ncc(N)c3=O)nc2c1 (centres unmarked) | 6
COC(=O)c1ccc2oc(C(=O)C(Cc3ccccc3)NC(=O)Cn3c(-c4cccc(OC)c4)ncc(N)c3=O)nc2c1 (centres unmarked) | 5

A: Nc1cnc(-c2cccnc2)n(CC(=O)NC(Cc2ccccc2)C(=O)c2nc3ncccc3o2)c1=O (centres unmarked)
B: CCOC(=O)c1ccc2oc(C(=O)C(Cc3ccccc3)NC(=O)Cn3c(-c4cccnc4)ncc(N)c3=O)nc2c1 (centres unmarked)
Qu. Could you kindly indicate whether A or B has the higher Ki value? Could you answer with the label of the item you picked?
Ans. A
(A: 74 nM, B: 45 nM)

// provenance: patent US6080738A
